Listing: Ki of selected compounds
- Assay target: wild-type GT1a NS3/4A protease (UniProt P27958)
- Construct: Ki WT; other: wild-type HCV NS3/4A protease
- Assay type: biochemical, Hepatitis C virus
- Conditions: read-out: Ki WT; wild-type HCV NS3/4A protease
Report field: quantity (unit follows the number).

Answer briefly: Ki recorded on wild-type GT1a NS3/4A protease (UniProt P27958) for C=C[C@@H]1C[C@]1(NC(=O)[C@@H]1C[C@@H](Oc2nc3cc(OC)ccc3nc2C(F)(F)F)CN1C(=O)[C@@H](NC(=O)OC1CCCC1)C(C)(C)C)C(=O)NS(=O)(=O)C1CC1 [Compound 11e] 34 nM

State measured Ki of the compound C=C[C@@H]1C[C@]1(NC(=O)[C@@H]1C[C@@H](Oc2nc3cc(OC)ccc3nc2C(C)C)CN1C(=O)[C@@H](NC(=O)OC1CCCC1)C(C)(C)C)C(=O)NS(=O)(=O)C1CC1 [Compound 11c] with wild-type GT1a NS3/4A protease (UniProt P27958). 17 nM

Output reported Ki of the compound C=C[C@@H]1C[C@]1(NC(=O)[C@@H]1C[C@@H](Oc2nc3cc(OC)ccc3nc2C(C)C)CN1C(=O)[C@@H](NC(=O)OC(C)(C)C)C(C)(C)C)C(=O)NS(=O)(=O)C1(C)CC1 [Compound 10c] on wild-type GT1a NS3/4A protease (UniProt P27958). 29 nM

Write down the reported Ki (system: wild-type GT1a NS3/4A protease (UniProt P27958)) of C=C[C@@H]1C[C@]1(NC(=O)[C@@H]1C[C@@H](Oc2nc3cc(OC)ccc3nc2CC)CN1C(=O)[C@@H](NC(=O)OC1CCCC1)C(C)(C)C)C(=O)NS(=O)(=O)C1CC1 [Compound 11a] 9.8 nM

Print wild-type GT1a NS3/4A protease (UniProt P27958) Ki for C=C[C@@H]1C[C@]1(NC(=O)[C@@H]1C[C@@H](Oc2nc3cc(OC)ccc3nc2Cl)CN1C(=O)[C@@H](NC(=O)OC(C)(C)C)C(C)(C)C)C(=O)NS(=O)(=O)C1CC1 . 7.8 nM

Give the observed Ki of C=C[C@@H]1C[C@]1(NC(=O)[C@@H]1C[C@@H](Oc2nc3cc(OC)ccc3nc2C)CN1C(=O)[C@@H](NC(=O)OC(C)(C)C)C(C)(C)C)C(=O)NS(=O)(=O)C1(C)CC1 [Compound 10b] for wild-type GT1a NS3/4A protease (UniProt P27958). 14 nM
